Taken from ChEMBL document CHEMBL1629439.

Assign MIC to each entry below.
# Tested on: Staphylococcus aureus
# experiment description: Antimicrobial activity against methicillin-resistant Staphylococcus aureus ATCC 33592 after 18 to 24 hrs by alamar blue assay
# Format: functional
# experimental setup: Staphylococcus aureus, ATCC 33592; read-out: MIC

Sample `O=C(Nc1ccc(Sc2nc3ccccc3s2)c(Cl)c1)c1cc(Br)cc(Br)c1O` — what was its MIC?
≤ 2 µg/mL

What MIC value was documented for this molecule, `O=C(Nc1ccc(Oc2ccc3ccccc3c2Cl)c(Cl)c1)c1cc(Br)cc(Br)c1O` ?
≤ 2 µg/mL

Query: MIC; subject: `O=C(Nc1ccc(Oc2cc3ccccc3cc2Cl)c(Cl)c1)c1cc(Cl)cc(I)c1O`
≤ 2 µg/mL
